Value source: paper PMC3715890

biological target: HIF-1alpha PAS-B (235-350) (Homo sapiens, UniProt Q16665); assay: ITC
Sequence (Q16665 235-350): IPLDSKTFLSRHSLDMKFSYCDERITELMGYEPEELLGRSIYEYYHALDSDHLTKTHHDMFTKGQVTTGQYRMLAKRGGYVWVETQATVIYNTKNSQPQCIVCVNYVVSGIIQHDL
METRIC NAME: Kd
Don't forget the unit after the number, please.

Query: What value of measured Kd is listed for cyclo(C(S‑S‑Tat)LLFVY) [P1 (Tat-cyclo-CLLFVY)] ?
Response: 124 nM
